Test: Half life in human liver microsomes at 1 uM measured at 10 mins in presence of NADPH
Format: ADME, Microsome
observationType: t1/2

Just so you know, measured t1/2 for `OC[C@H]1O[C@@H](c2cc(Cc3cc4ccccc4s3)c(Cl)cc2O)[C@H](O)[C@@H](O)C1(F)F` came out at > 3 h

---

Test: Stability of compound in human liver microsomes assessed as parent compound remaining at 1 uM measured at 10 mins in presence of NADPH
Assay type: ADME, Microsome
Conditions: liver microsomes, read-out: Stabilty
observationType: remaining at 10 min, 1 µM

Answered cases to consult:
COc1ccc(Cc2cc([C@@H]3O[C@H](CO)C(F)(F)[C@H](O)[C@H]3O)c(O)cc2Cl)cc1 : 90%
COc1cc(O)c([C@@H]2O[C@H](CO)C(F)(F)[C@H](O)[C@H]2O)cc1Cc1ccc2c(c1)CCCO2 : 95%

Just so you know, measured remaining at 10 min, 1 µM for `C[C@]1(F)[C@H](O)[C@@H](O)[C@H](c2cc(Cc3ccc4c(c3)OCCO4)c(Cl)cc2O)O[C@@H]1CO` came out at 74%
